Test system: HCT-116
Assay: Antiproliferative activity against human HCT116 cells over-expressing DHODH after 72 hrs by MTT assay
Type: functional, cell-based
// assign fulfilled if IC50 falls strictly below 7 µM, else not fulfilled (ties count as not fulfilled)

Cc1c(-c2ccc(-c3cccnc3Cl)cc2)nc2cnc(C(F)(F)F)cc2c1C(=O)O : not fulfilled
Cc1c(-c2ccc(-c3ccccc3F)cc2)nc2ccc(F)cc2c1C(=O)O : fulfilled
O=C(O)c1cc(-c2ccc(-c3ccccc3)cc2)nc2ccccc12 : fulfilled
Cc1c(-c2ccc(-c3cccnc3Cl)cc2)nc2ccc(Cl)cc2c1C(=O)O : fulfilled
O=C(O)c1cc(-c2ccc(N3CCCCC3)cc2)nc2ccccc12 : not fulfilled
Cc1ccc(-c2ccc(-c3nc4ccc(Cl)cc4c(C(=O)O)c3C)cc2)c(Cl)n1 : fulfilled
Cc1ccc(-c2ccc(-c3nc4ccccc4c(C(=O)O)c3C)cc2)c(F)n1 : not fulfilled
Cc1c(-c2ccc(-c3cccnc3F)cc2)nc2ccccc2c1C(=O)O : not fulfilled

Attention now shifts to the item below.
Does "COC(=O)c1cc(-c2ccc(C3CCCCC3)cc2)nc2ccccc12" have IC50 strictly under 7 µM?
not fulfilled

----------
Tested on: MIA PaCa-2
Test: Antiproliferative activity against human MIAPaCa2 cells after 72 hrs by MTT assay
Assay type: functional, cell-based
parameter measured: IC50

Cc1ccc(-c2ccc(-c3nc4ccc(F)cc4c(C(=O)O)c3C)cc2)c(F)n1 : 33.8 µM

For each listed entry, give its IC50.
1. Cc1ccc(-c2ccc(-c3nc4ccc(Cl)cc4c(C(=O)O)c3C)cc2)c(Cl)n1
2. O=C(O)c1cc(-c2ccc(-c3cccnc3Cl)cc2)nc2ccccc12
3. Cc1c(-c2ccc(-c3cccnc3Cl)cc2)nc2ccccc2c1C(=O)O

["7.56 µM", "7.13 µM", "8.64 µM"]

For each listed entry, give its IC50.
1. Cc1c(-c2ccc(-c3cccnc3Cl)cc2)nc2cnc(C(F)(F)F)cc2c1C(=O)O
2. Cc1ccncc1-c1ccc(-c2cc(C(=O)O)c3ccccc3n2)cc1
3. COc1ncccc1-c1ccc(-c2cc(C(=O)O)c3ccccc3n2)cc1
4. COC(=O)c1cc(-c2ccc(-c3cccnc3)cc2)nc2ccccc12
5. O=C(O)c1cc(-c2ccc(N3CCOCC3)cc2)nc2ccccc12
6. O=C(O)c1cc(-c2ccc(-c3cccnc3)cc2)nc2ccccc12

["21.5 µM", "17.9 µM", "13.6 µM", "6.43 µM", "> 100 µM", "32.8 µM"]

----------
Test: Elimination half life in human at 8 mg/m2 administered as 10 mins iv infusion
Format: ADME, organism-based
Details: in vivo, read-out: beta t1/2 (converted)
parameter measured: half-life (h)
Give bare numbers, in h.

Find the recorded half-life belonging to "Cc1c(-c2ccc(-c3ccccc3F)cc2)nc2ccc(F)cc2c1C(=O)O" and report it.
2.9

----------
Test: AUC (0 to infinity) in CD-1 mouse at 20 mg/kg, po
Assay type: ADME, organism-based
Design: dose 20 mg/kg, time infinity, route oral
Conditions: in vivo
parameter measured: AUC(0-inf) (ng·h/mL)
Give bare numbers, in ng·h/mL.

Find the recorded AUC(0-inf) belonging to "Cc1c(-c2ccc(-c3cccnc3Cl)cc2)nc2ccc(F)cc2c1C(=O)O" and report it.
36000

----------
Recorded below: pIC50, system Dihydroorotate dehydrogenase (quinone), mitochondrial (Homo sapiens).
Give bare numbers, as −log10 of the molar value.

For each listed entry, give its pIC50.
1. Cc1c(-c2ccc(-c3ccccc3F)cc2)nc2cnc(C(F)(F)F)cc2c1C(=O)O
2. Cc1c(-c2ccc(-c3ccccc3)cc2)nc2cnccc2c1C(=O)O

[7.93, 7.55]
